Can you tell me composite z-score for the items I'm about to list?
experimentDescription: binders of probe aFSTL3 on microarray, primary screen, stem cell growth factor project, biochemical, small-molecule microarray, fluorescence 635/667 (AID 1064);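 note: measures binding of the biotinylated anti-FSTL3 antibody to printed compounds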
runParameters: higher = more signal

## Task I am curious: what composite z-score value has been reported for `CCCCC=C[C@@H](NC(=O)c1ccccc1)c1ccccc1` ?
## Result 0.277

## Task // query composite z-score value for entry `O=C1O[C@H](c2ccccc2)[C@H](c2ccccc2)N2[C@H]1[C@@H](C(=O)Nc1nc3ccccc3s1)[C@]1(C(=O)Nc3ccc(C#CC4=CCCCC4)cc31)[C@H]2c1ccc(O)cc1`
## Result -0.384

## Task Form field: reported composite z-score of `COC(=O)c1c2oc(c1C(=O)OC)C(=O)N1CCC[C@H]1Cn1nncc1CN(Cc1ccccc1)C(=O)N[C@H](CO)CC2`
## Result 1.31

## Task Tell me the measured composite z-score of COC(=O)C1=CC(CCCO)=CC(c2ccc(CN3CCCC3)cc2)N(Cc2cc3c(cc2Br)OCO3)C=C1C(=O)OC (configuration not stated) , please.
## Result 0.942

## Task I would be grateful if you could share the reported composite z-score for `C[C@@]12COC[C@]13C=C(Br)[C@H](C2)[C@@]1(CO1)C3=O` .
## Result 0.129

## Task Please look up its composite z-score: CC(C)OC(=O)CC(=O)CC(O)c1ccc([N+](=O)[O-])cc1 (configuration not stated)
## Result 0.231

## Task Please report the recorded composite z-score for `CN(C)CCCCCCNC(=O)[C@@H]1C[C@@H]2C(=O)N[C@@H](CCCCN)C(=O)N2[C@@H]1c1ccc(O)cc1` .
## Result 3.77
